biological target: Fuc(a1-2)[Gal(a1-3)]Gal(b1-4)Glc; experiment: glycan array binding signal (z-score within array); higher = stronger binding; settings: glycan notation: IUPAC condensed, linker removed
Only a selection was taken, and the strongest signals are over-represented in it overall.
Would you mind labelling by glycan array binding signal (z-score)? At or over -0.2 is T, under is F.

Prompt line: Determine whether measured glycan array binding signal (z-score) meets or exceeds -0.2 for Tap1 (Sordaria macrospora), Q50IV4 (protein) MSHHHHHHHHYTLHLRLINDTSDTLTLVEQTSWWGKNTIWSQVRSTGVHVLSMAASGSSGMLRFQTSKGDFFAVAVGVHNYKRWCDVLVDTADEAPLTKLHPKYYDDKDAKYQALWAQASEFEAKSKSGKTVRIKFYQADGNVLRATVEYL
Response line: F

Prompt line: Determine whether measured glycan array binding signal (z-score) meets or exceeds -0.2 for SalT (Orysata sativa) (protein) MTLVKIGLWGGNGGSAQDISVPPKKLLGVTIYSSDAIRSIAFNYIGVDGQEYAIGPWGGGEGTSTEIKLGSSEHIKEISGTHGPVYDLADIVTYLKIVTSANNTYEAGVPNGKEFSIPLQDSGHVVGFFGRSGTLIDAIGIYVHPILEQKLISEEDLNSAVDHHHHHH
Response line: F

Prompt line: Determine whether measured glycan array binding signal (z-score) meets or exceeds -0.2 for MSMEG3662-2a (Mycobacterium smegmatis), A0QYH7_MYCS2 (protein) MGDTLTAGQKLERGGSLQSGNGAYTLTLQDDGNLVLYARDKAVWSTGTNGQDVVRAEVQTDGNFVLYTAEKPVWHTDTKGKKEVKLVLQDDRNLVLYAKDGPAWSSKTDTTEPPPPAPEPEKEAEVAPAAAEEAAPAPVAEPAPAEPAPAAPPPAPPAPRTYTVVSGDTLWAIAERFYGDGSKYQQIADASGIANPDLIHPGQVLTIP
Response line: F

Prompt line: Determine whether measured glycan array binding signal (z-score) meets or exceeds -0.2 for CD72 ectodomain (Homo sapiens), P21854 (protein) RYLQVSQQLQQTNRVLEVTNSSLRQQLRLKITQLGQSAEDLQGSRRELAQSQEALQVEQRAHQAAEGQLQACQADRQKTKETLQSEEQQRRALEQKLSNMENRLKPFFTCGSADTCCPSGWIMHQKSCFYISLTSKNWQESQKQCETLSSKLATFSEIYPQSHSYYFLNSLLPNGGSGNSYWTGLSSNKDWKLTDDTQRTRTYAQSSKCNKVHKTWSWWTLESESCRSSLPYICEMTAFRFPD
Response line: T

Prompt line: Determine whether measured glycan array binding signal (z-score) meets or exceeds -0.2 for AT3G09350(27) (Arabidopsis thaliana), Q84J81 (protein) MAKDGPNWDGLLKWSLSHADGTRPTRQLSEEDRKWFMEAMQSQTVDVVKRMKEITLVMQTPEQVLVEHGVTPEDIQDLLDELQEHVESIDMANDLHSIGGLVPLLSFLKNSHANIRAKAADVVSTIVQNNPRSQELVMETNALESLLSNFTSDTDIHARTQALGAISSLIRHNKPGVTAFKLANGYAGLRDALASDSVRFQRKALNLLQYLLQEDDSDRSIATGLGFPRVMMHLASSDDAEIREAALRGLLELSREKNDGSSSIDKSDEKLRQLLEERIKGITLMSQEDLETVKEERQLVDLLWSICYNEPSSLREKGLVVLPGEDALPPDVASKLFEPPLRASAANRNATEKKDEPMKLLGP
Response line: T

Prompt line: Determine whether measured glycan array binding signal (z-score) meets or exceeds -0.2 for CLEC-6 (Homo sapiens), Q8WXI8 (protein) MGLEKPQSKLEGGMHPQLIPSVIAVVFILLLSVCFIASCLVTHHNFSRCKRGTGVHKLEHHAKLKCIKEKSELKSAEGSTWNCCPIDWRAFQSNCYFPLTDNKTWAESERNCSGMGAHLMTISTEAEQNFIIQFLDRRLSYFLGLRDENAKGQWRWVDQTPFNPRRVFWHKNEPDNSQGENCVVLVYNQDKWAWNDVPCNFEASRICKIPGTTLN
Response line: F

Prompt line: Determine whether measured glycan array binding signal (z-score) meets or exceeds -0.2 for DGL (Dioclea grandiflora), P08902 (protein) ADTIVAVELDSYPNTDIGDPNYPHIGIDIKSIRSKSTARWNMQTGKVGTVHISYNSVAKRLSAVVSYSGSSSTTVSYDVDLNNVLPEWVRVGLSATTGLYKETNTILSWSFTSKLKTNSIADENSLHFSFHKFSQNPKDLILQGDAFTDSDGNLELTKVSSSGDPQGNSVGRALFYAPVHIWESSAVVASFDATFTFLIKSPDREPADGITFFIANTDTSIPSGSGGRLLGLFPDAN
Response line: T

Prompt line: Determine whether measured glycan array binding signal (z-score) meets or exceeds -0.2 for AAA (Anguilla anguilla), Q7SIC1 (protein) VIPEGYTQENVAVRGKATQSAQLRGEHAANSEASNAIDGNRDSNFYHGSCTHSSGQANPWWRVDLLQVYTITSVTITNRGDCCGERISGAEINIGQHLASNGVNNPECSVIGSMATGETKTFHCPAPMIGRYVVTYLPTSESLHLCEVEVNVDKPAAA
Response line: T

Prompt line: Determine whether measured glycan array binding signal (z-score) meets or exceeds -0.2 for Gal 4 (Canis lupus) (protein) MAYVPAPGYQPTYNPTLPYNKPIPGGLSVGMSVYIQGITSEHMRRFCVNFVAGAHPGSDIAFHFNPRFDGWDKVVFNSHLGGKWGSEEKKRSMPFRKGTHFELVFMVLAEHYKVVVNGNPFYEFGHRLPLQLVTHLQVEGDVELQSINFIGGTQPLGQGPGHTQQQPSSLPTMEGPPVFNPPVPFRKRLQGGLTVRRTVIIKGFVPFTSKSFVINFMVESSGDLALHINPRLTEGLVVRNSCLNGSWGSEDRKLSYNPFIPGQFFDLSIRCGMDRFKVYANGQHLFDFSHRLLALQNVDMLEINGDVTLSYIQV
Response line: T

Prompt line: Determine whether measured glycan array binding signal (z-score) meets or exceeds -0.2 for MGL (Homo sapiens), Q8IUN9 (protein) MTRTYENFQYLENKVKVQGFKNGPLPLQSLLQRLCSGPCHLLLSLGLGLLLLVIICVVGFQNSKFQRDLVTLRTDFSNFTSNTVAEIQALTSQGSSLEETIASLKAEVEGFKQERQAGVSELQEHTTQKAHLGHCPHCPSVCVPVHSEMLLRVQQLVQDLKKLTCQVATLNNNASTEGTCCPVNWVEHQDSCYWFSHSGMSWAEAEKYCQLKNAHLVVINSREEQNFVQKYLGSAYTWMGLSDPEGAWKWVDGTDYATGFQNWKPGQPDDWQGHGLGGGEDCAHFHPDGRWNDDVCQRPYHWVCEAGLGQTSQESH
Response line: F

Prompt line: Determine whether measured glycan array binding signal (z-score) meets or exceeds -0.2 for DC SIGN CRD (Homo sapiens), Q9NNX6 (protein) QPCPWEWTFFQGNCYFMSNSQRNWHDSITACKEVGAQLVVIKSAEEQNFLQLQSSRSNRFTWMGLSDLNQEGTWQWVDGSPLLPSFKQYWNRGEPNNVGEEDCAEFSGNGWNDDKCNLAKFWICKKSAWSHPQFEK
Response line: F
